method-description: Metabolic stability in monkey liver microsomes
Type: in vitro ADME
The following compounds are shown together with reported % remaining @ 40 min values.
reported-property: % remaining @ 40 min (%)

- C=CC(=O)Nc1cccc(-c2n[nH]c3c2COCC3)c1: 0
- C=CC(=O)Nc1cccc(-c2n[nH]c3c2CC(C)(C)CC3)c1: 1
- C=CC(=O)Nc1cccc(-c2n[nH]c3c(Cl)cccc23)c1: 0
- C=CC(=O)Nc1cc(-c2n[nH]c3ccccc23)ccn1: 18
- C=CC(=O)Nc1cccc(-c2n[nH]c3cc(Cl)ccc23)c1: 0

====

method-description: Metabolic stability in human liver microsomes
Type: in vitro ADME
assay-context: human, liver microsomes
The following compounds are shown together with reported half-life values.
reported-property: half-life

• C=CC(=O)Nc1cc(C#N)cc(-c2n[nH]c3cc(C)ccc23)c1 = < 5 min
• C=CC(=O)Nc1cccc(-c2n[nH]c3c(F)cccc23)c1 = < 5 min
• C=CC(=O)Nc1cccc(-c2n[nH]c3cc(C)ccc23)c1 = < 5 min
• C=CC(=O)Nc1cccc(-c2n[nH]c3c(Cl)cccc23)c1 = 8 min
• C=CC(=O)Nc1cc(C#N)cc(-c2n[nH]c3ccccc23)c1 = < 5 min
• C=CC(=O)Nc1cccc(-c2n[nH]c3c2COCC3)c1 = 13 min
• C=CC(=O)Nc1cc(-c2n[nH]c3ccccc23)ccc1C = 12 min
• C=CC(=O)Nc1cccc(-c2n[nH]c3cc(Br)ccc23)c1 = < 5 min
• C=CC(=O)Nc1cccc(-c2n[nH]c3cc(OC)ccc23)c1 = < 5 min
• C=CC(=O)Nc1cccc(-c2n[nH]c3cc(Cl)ccc23)c1 = < 5 min

====

method-description: Metabolic stability in mouse liver microsomes
Assay type: in vitro ADME
assay-context: mouse, liver microsomes
The following molecules are shown together with reported half-life values.
reported-property: half-life

• C=CC(=O)Nc1cc(C#N)cc(-c2n[nH]c3cc(C)ccc23)c1 = < 5 min
• C=CC(=O)Nc1cc(-c2n[nH]c3ccccc23)ccc1C = < 5 min
• C=CC(=O)Nc1cccc(-c2n[nH]c3cc(OC)ccc23)c1 = 5 min
• C=CC(=O)Nc1cccc(-c2n[nH]c3ccccc23)c1 = < 5 min
• C=CC(=O)Nc1cccc(-c2n[nH]c3c(Cl)cccc23)c1 = < 5 min
• C=CC(=O)Nc1cc(C#N)cc(-c2n[nH]c3ccccc23)c1 = < 5 min

====

target-desc: MKK7 (Homo sapiens, UniProt O14733)
Construct: purchased Nanosyn (contract assay)
Sequence (O14733 1-419): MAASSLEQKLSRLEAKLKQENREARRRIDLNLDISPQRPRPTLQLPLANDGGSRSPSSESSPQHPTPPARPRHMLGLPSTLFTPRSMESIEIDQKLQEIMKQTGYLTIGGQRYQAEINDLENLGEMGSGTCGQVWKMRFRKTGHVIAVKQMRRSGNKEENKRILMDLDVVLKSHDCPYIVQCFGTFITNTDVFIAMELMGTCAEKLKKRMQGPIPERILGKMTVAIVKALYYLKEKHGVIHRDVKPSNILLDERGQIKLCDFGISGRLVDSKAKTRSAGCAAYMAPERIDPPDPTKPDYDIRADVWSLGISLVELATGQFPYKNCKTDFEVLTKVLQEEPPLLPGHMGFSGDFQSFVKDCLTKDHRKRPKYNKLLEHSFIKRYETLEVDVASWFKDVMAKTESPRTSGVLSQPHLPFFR
method-description: In vitro kinase activity assay for MKK7 (Nanosyn)
Type: biochemical
assay-context: read-out: MKK7 IC50 in vitro
The following compounds are shown together with reported IC50 values.
reported-property: IC50

* C=CC(=O)Nc1cc(C#N)cc(-c2n[nH]c3ccccc23)c1 | 0.004 µM
* C=CC(=O)NCC1CCCN(c2cc(NC)ncn2)C1 (stereo not drawn) | > 10 µM
* C=CC(=O)N1CCC(c2c[nH]c3ncccc23)CC1 | > 10 µM
